- Test system: Rattus norvegicus
- assay.details: Antiinflammatory activity in po dosed CD1 rat assessed as inhibition of carrageenan-induced paw edema administered 1 hr prior to carrageenan challenge measured after 3 hrs
Class criterion met: ED40 at least 50 mg/kg. Class criterion not met: ED40 below 50 mg/kg.

Answered examples (5):
# smiles.data, measured.target, label
records = [
    ("O=C(OCCN1CCN(c2ccccc2)CC1)c1ccccc1Nc1cccc(C(F)(F)F)c1", "Rattus norvegicus", "criterion met"),
    ("O=C(OCCN1CCN(c2cccc(Cl)c2)CC1)c1cccnc1Nc1cccc(SC(F)(F)F)c1", "Rattus norvegicus", "criterion met"),
    ("Cc1cc(Nc2ccccc2C(=O)OCCN2CCN(c3ccccc3)CC2)c2ccc(Cl)cc2n1", "Rattus norvegicus", "criterion met"),
    ("O=C(OCCN1CCN(c2cc(C(F)(F)F)cc(C(F)(F)F)c2)CC1)c1ccccc1Nc1ccnc2cc(C(F)(F)F)ccc12", "Rattus norvegicus", "criterion met"),
    ("O=C(OCCN1CCN(c2cccc(C(F)(F)F)c2)CC1)c1ccccc1Nc1ccnc2cc(Cl)ccc12", "Rattus norvegicus", "criterion not met"),
]

Would you kindly look at the next entry?
Query: Identify whether the reported ED40 of the following compound is 50 mg/kg or greater: `Cc1c(Cl)cccc1Nc1ncccc1C(=O)OCCN1CCN(c2cccc(C(F)(F)F)c2)CC1`
Result: criterion met
